Tested on: Escherichia coli TOP10;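 also: peptides expressed intracellularly from a pBAD plasmid library in pooled LB shake-flask culture, induced with 0.3% L-arabinose, DNA abundance read by NGS, three biological replicates, DESeq2 with apeglm shrinkage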
Experiment: shrunken log2 fold change of peptide-encoding DNA abundance (4.5 h post-induction vs induction); higher = less antimicrobial activity (less host growth inhibition)
Conditions: time post-induction: 4.5 h; library: site-saturation at positions 5, 18, 19, 20
Lab note: anything with shrunken log2 fold change at or over -0.0007 counts as Met; the rest go in Not met.

>  <chainSequence>
RRIRGRPPRLPRPRPRPEFIPRP

>  <class>
Met

$$$$
>  <chainSequence>
RRIRARPPRLPRPRPRPTFCPRP

>  <class>
Met

$$$$
>  <chainSequence>
RRIRQRPPRLPRPRPRPNLFPRP

>  <class>
Not met

$$$$
>  <chainSequence>
RRIRCRPPRLPRPRPRPECEPRP

>  <class>
Met

$$$$
>  <chainSequence>
RRIRVRPPRLPRPRPRPVLHPRP

>  <class>
Not met

$$$$
>  <chainSequence>
RRIRRRPPRLPRPRPRPFTTPRP

>  <class>
Not met

$$$$
>  <chainSequence>
RRIRARPPRLPRPRPRPNTHPRP

>  <class>
Not met

$$$$
>  <chainSequence>
RRIRLRPPRLPRPRPRPNLHPRP

>  <class>
Not met

$$$$
>  <chainSequence>
RRIRERPPRLPRPRPRPFLSPRP

>  <class>
Not met

$$$$
>  <chainSequence>
RRIRDRPPRLPRPRPRPQQKPRP

>  <class>
Not met

$$$$
>  <chainSequence>
RRIRPRPPRLPRPRPRPPVGPRP

>  <class>
Met

$$$$
>  <chainSequence>
RRIRARPPRLPRPRPRPKKHPRP

>  <class>
Met

$$$$
>  <chainSequence>
RRIRVRPPRLPRPRPRPEDFPRP

>  <class>
Met

$$$$
>  <chainSequence>
RRIRSRPPRLPRPRPRPRFVPRP

>  <class>
Met

$$$$
